biological target: PI3K β (Homo sapiens (Human)); assay: PI 3-Kinase (human) HTRF assay, p110β/p85α; format: biochemical
Sequence (P42338 whole entry): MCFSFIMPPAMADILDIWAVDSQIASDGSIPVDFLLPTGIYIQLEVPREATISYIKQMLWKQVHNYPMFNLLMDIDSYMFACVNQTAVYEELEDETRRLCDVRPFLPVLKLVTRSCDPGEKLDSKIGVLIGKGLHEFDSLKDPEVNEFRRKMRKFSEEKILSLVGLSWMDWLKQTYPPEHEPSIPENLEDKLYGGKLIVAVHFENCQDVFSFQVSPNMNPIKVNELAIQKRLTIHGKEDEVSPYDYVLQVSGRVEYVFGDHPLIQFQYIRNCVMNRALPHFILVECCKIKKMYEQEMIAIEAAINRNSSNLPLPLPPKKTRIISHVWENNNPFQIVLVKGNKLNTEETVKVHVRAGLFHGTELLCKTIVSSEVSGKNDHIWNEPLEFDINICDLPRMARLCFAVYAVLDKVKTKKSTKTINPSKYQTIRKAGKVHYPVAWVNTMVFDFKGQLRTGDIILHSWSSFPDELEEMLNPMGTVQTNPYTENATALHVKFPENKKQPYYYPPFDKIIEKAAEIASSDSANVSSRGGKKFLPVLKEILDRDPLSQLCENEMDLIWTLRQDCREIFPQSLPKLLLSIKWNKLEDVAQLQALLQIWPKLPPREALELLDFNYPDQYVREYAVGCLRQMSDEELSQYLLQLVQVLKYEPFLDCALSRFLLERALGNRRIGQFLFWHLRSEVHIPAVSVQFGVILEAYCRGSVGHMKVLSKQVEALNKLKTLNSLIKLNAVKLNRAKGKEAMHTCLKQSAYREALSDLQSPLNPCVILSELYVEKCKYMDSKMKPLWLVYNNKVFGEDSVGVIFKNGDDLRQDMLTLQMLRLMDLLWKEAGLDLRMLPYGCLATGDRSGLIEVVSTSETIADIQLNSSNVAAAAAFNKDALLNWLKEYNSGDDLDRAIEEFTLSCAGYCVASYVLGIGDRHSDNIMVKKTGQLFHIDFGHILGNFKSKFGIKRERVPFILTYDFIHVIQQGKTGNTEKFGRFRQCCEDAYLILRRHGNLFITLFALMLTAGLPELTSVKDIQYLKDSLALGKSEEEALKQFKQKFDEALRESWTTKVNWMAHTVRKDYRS
Sequence (P27986 whole entry partner): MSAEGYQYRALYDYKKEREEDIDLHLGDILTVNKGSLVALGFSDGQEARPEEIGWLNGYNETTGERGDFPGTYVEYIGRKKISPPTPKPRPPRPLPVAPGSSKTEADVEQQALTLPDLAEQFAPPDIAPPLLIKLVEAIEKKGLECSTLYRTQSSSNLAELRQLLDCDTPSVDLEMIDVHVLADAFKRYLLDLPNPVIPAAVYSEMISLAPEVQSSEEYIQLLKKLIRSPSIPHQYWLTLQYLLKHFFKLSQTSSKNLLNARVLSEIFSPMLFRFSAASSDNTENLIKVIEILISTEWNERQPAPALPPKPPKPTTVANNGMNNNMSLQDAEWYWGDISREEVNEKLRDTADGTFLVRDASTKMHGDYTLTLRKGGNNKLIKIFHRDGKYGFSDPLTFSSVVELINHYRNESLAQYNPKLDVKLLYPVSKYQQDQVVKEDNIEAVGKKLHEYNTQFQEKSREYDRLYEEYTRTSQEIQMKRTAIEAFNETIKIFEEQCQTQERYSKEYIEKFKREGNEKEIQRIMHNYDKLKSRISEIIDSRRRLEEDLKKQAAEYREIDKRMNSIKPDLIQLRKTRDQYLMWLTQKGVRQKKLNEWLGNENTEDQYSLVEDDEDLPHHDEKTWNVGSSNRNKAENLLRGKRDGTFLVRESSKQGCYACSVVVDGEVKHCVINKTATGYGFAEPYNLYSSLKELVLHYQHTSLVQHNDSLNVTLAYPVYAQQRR
Endpoint Name: IC50

[[record]]
record_smiles = "Cc1nc(NC(=O)N2CCC[C@H]2C(N)=O)sc1-c1ccc2oc(N)nc2c1"
endpoint_name = "IC50"
measurement = "> 10000 nM"

[[record]]
record_smiles = "Nc1nc2cc(-c3ccc4ncc(N5CCNC(=O)C5)nc4n3)ccc2o1"
endpoint_name = "IC50"
measurement = "< 1000 nM"

[[record]]
record_smiles = "O=C(c1cnc2ccc(-c3cccc(S(=O)(=O)Nc4ccccc4)c3)cn12)N1CCOCC1"
endpoint_name = "IC50"
measurement = "> 10000 nM"

[[record]]
record_smiles = "Cc1ccc(-c2cnc3ccc(-c4ccc5oc(N)nc5c4)cc3n2)cn1"
endpoint_name = "IC50"
measurement = "> 10000 nM"

[[record]]
record_smiles = "CN1CCC(N(C)c2ncnc3ccc(-c4ccc5oc(N)nc5c4)cc23)CC1"
endpoint_name = "IC50"
measurement = "< 100 nM"

[[record]]
record_smiles = "CC1(C)CN(C2CN(c3cnc4ccc(-c5ccc6oc(N)nc6c5)cc4n3)C2)CCN1"
endpoint_name = "IC50"
measurement = "< 1000 nM"

[[record]]
record_smiles = "Nc1nc2cc(-c3ccc4ncc(C(=O)NCCO)n4c3)ccc2o1"
endpoint_name = "IC50"
measurement = "< 1000 nM"

[[record]]
record_smiles = "C[C@@H]1CN(c2cnc3ccc(-c4ccc5oc(N)nc5c4)nc3c2)CCN1"
endpoint_name = "IC50"
measurement = "< 1000 nM"

[[record]]
record_smiles = "Nc1nc2cc(-c3ccc4[nH]nc(N)c4c3)ccc2o1"
endpoint_name = "IC50"
measurement = "> 10000 nM"

[[record]]
record_smiles = "Nc1nc2cc(-c3ccc4nc(N)sc4c3)cc(F)c2o1"
endpoint_name = "IC50"
measurement = "< 100 nM"

